These data points were gathered from PubChem BioAssay (EPA / NIEHS).

assay: Tanguay_ZF_120hpf_JAW_legacy: (Legacy) Oregon State University Tanguay Lab 120 Hour Post-fertilization zebrafish Assay for Jaw Malformation (AID 2283638)
Records with an inconclusive call do not appear. Active and inactive are the calls of the source. How the source made its calls: active means hit-call score of the fitted dose curve at least 0.9, where 1 is the maximum; inconclusive means response in the unintended direction; inactive means score below 0.9.
Give your call using only these classes: yes (1) (active), no (0) (inactive)

INSERT INTO results (compound, discrete_label) VALUES
  ('CC(C)C1(C)N=C(c2ncccc2C(=O)O)NC1=O (stereo not drawn)', 'no (0)'),
  ('CS(=O)(=O)c1ccc(C(=O)C2C(=O)CCCC2=O)c([N+](=O)[O-])c1', 'no (0)'),
  ('CCNC(=O)NC(=O)C(C#N)=NOC', 'yes (1)'),
  ('CC(C)N1C(=O)c2ccccc2NS1(=O)=O', 'no (0)'),
  ('Cc1nc(N(C)C)nc(OC(=O)N(C)C)c1C', 'no (0)'),
  ('CCOc1nc(F)cc2nc(S(=O)(=O)Nc3c(Cl)cccc3Cl)nn12', 'no (0)'),
  ('COP(=S)(OC)Oc1ccc([N+](=O)[O-])c(C)c1', 'no (0)'),
  ('Cc1cc(C)nc(Nc2ccccc2)n1', 'no (0)'),
  ('CCCC(=NOCC)C1=C(O)CC(CC(C)SCC)CC1=O (stereo not drawn)', 'no (0)'),
  ('COP(=S)(OC)SCn1nnc2ccccc2c1=O', 'no (0)');

Next up:
Recorded test outcome, item `CCOc1nc(C(Cl)(Cl)Cl)ns1` no (0)

* * *

read-out: Human Leukocyte Antigen - DR isotype (HLADR), HLA-DRA (gene 3122); assay: BSK_CASM3C_HLADR: BioMAP Diversity Plus: CASM3C Assay for Human Leukocyte Antigen - DR isotype (HLADR) Biomarker Activity (AID 2283043); conditions: primary human coronary artery smooth muscle cells; actives raise or lower the signal;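 further: cell-surface HLA-DR protein level quantified by ELISA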
The source made the active and inactive calls. Rule for the calls: active = hit-call score of the fitted dose curve at least 0.9, where 1 is the maximum; inactive = score below 0.9.
Give your call using only these classes: active, inactive

Please review the following examples before continuing.
INSERT INTO assay_data (compound, discrete_label) VALUES
  ('CC(C)Nc1nc(Cl)nc(NC(C)C)n1', 'inactive'),
  ('O=c1n(Cl)c(=O)n(Cl)c(=O)n1Cl', 'inactive'),
  ('CCOC(=O)C(C)OC(=O)c1cc(Oc2ccc(C(F)(F)F)cc2Cl)ccc1[N+](=O)[O-] (centres undefined)', 'inactive'),
  ('CC(C)(C)C(=O)C(Oc1ccc(Cl)cc1)n1cncn1 (centres undefined)', 'inactive'),
  ('CCNC(=O)NC(=O)C(C#N)=NOC', 'inactive');

Recorded test outcome, item COCC(C)N(C(=O)CCl)c1c(C)csc1C (centres undefined) inactive

Recorded test outcome, item Cc1cnc(C2=NC(C)(C(C)C)C(=O)N2)c(C(=O)O)c1 (centres undefined) inactive

Recorded test outcome, item `COP(=S)(OC)Oc1ccc([N+](=O)[O-])c(C)c1` inactive

Recorded test outcome, item CCCC(=NOCC)C1=C(O)CC(CC(C)SCC)CC1=O (centres undefined) inactive

Recorded test outcome, item `CC(C)N1C(=O)c2ccccc2NS1(=O)=O` inactive

Recorded test outcome, item `OC(c1ccc(Cl)cc1)(c1ccc(Cl)cc1)C(Cl)(Cl)Cl` inactive

Recorded test outcome, item `CN=C=S` inactive

Recorded test outcome, item `COC(=O)N(C(=O)N1CO[C@@]2(C(=O)OC)Cc3cc(Cl)ccc3C2=N1)c1ccc(OC(F)(F)F)cc1` inactive

Recorded test outcome, item `CCOc1nc(F)cc2nc(S(=O)(=O)Nc3c(Cl)cccc3Cl)nn12` inactive

Recorded test outcome, item `C=C(C)CN(CC)c1c([N+](=O)[O-])cc(C(F)(F)F)cc1[N+](=O)[O-]` inactive

Recorded test outcome, item `CSC(=O)c1c(C(F)F)nc(C(F)(F)F)c(C(=O)SC)c1CC(C)C` inactive

Recorded test outcome, item `COc1cc(OC)nc(NC(=O)NS(=O)(=O)c2ncccc2OCC(F)(F)F)n1` inactive

Recorded test outcome, item `N#Cc1c(Cl)cccc1Cl` inactive

Recorded test outcome, item `COC(=O)NS(=O)(=O)c1ccc(N)cc1` inactive

Recorded test outcome, item `Clc1cccc(C(Cl)(Cl)Cl)n1` inactive

* * *

read-out: BCL2L11 (gene 10018); assay: LTEA_HepaRG_BCL2L11: Life Technologies and Expression Analysis (LTEA) Assay for Bcl-2 (BCL2L11) gene using HepaRG (AID 2283473); settings: mRNA level, 48 h; actives raise or lower the signal
Activity calls are given as the source filed them. The calls were made as follows: active = hit-call score of the fitted dose curve at least 0.9, where 1 is the maximum; inactive = score below 0.9.
Give your call using only these classes: 1 (yes) for active, 0 (no) for inactive

Please review the following examples before continuing.
INSERT INTO results (compound, discrete_label) VALUES
  ('CCSC(=O)N1CCCCCC1', '0 (no)'),
  ('CCC(C)n1c(=O)[nH]c(C)c(Br)c1=O (configuration not stated)', '1 (yes)'),
  ('CC1(C)CCC(=Cc2ccc(Cl)cc2)C1(O)Cn1cncn1 (configuration not stated)', '0 (no)'),
  ('O=P(O)(O)CCCl', '0 (no)');

Recorded test outcome, item `CCN(CC)c1nc(C)cc(OP(=S)(OC)OC)n1` 0 (no)

Recorded test outcome, item CC(C)C1(C)N=C(c2ncccc2C(=O)O)NC1=O (configuration not stated) 0 (no)

Recorded test outcome, item `CC(C)N1C(=O)N(c2ccccc2)CSC1=NC(C)(C)C` 0 (no)

Recorded test outcome, item `CC(C)Nc1nc(Cl)nc(NC(C)C)n1` 0 (no)

Recorded test outcome, item `N#Cc1c[nH]cc1-c1cccc2c1OC(F)(F)O2` 1 (yes)

Recorded test outcome, item `CN/C(=N\[N+](=O)[O-])NCc1cnc(Cl)s1` 0 (no)

Recorded test outcome, item `C=CCOC(=O)C(C)(C)OC(=O)c1cc(-n2c(=O)cc(C(F)(F)F)n(C)c2=O)ccc1Cl` 0 (no)

Recorded test outcome, item O=C1C2CC=CCC2C(=O)N1SC(Cl)(Cl)Cl (configuration not stated) 0 (no)

* * *

Molecular target: Cytochrome P450 2C18 (Homo sapiens) (UniProt P33260)
Sequence (P33260 whole entry, looked up): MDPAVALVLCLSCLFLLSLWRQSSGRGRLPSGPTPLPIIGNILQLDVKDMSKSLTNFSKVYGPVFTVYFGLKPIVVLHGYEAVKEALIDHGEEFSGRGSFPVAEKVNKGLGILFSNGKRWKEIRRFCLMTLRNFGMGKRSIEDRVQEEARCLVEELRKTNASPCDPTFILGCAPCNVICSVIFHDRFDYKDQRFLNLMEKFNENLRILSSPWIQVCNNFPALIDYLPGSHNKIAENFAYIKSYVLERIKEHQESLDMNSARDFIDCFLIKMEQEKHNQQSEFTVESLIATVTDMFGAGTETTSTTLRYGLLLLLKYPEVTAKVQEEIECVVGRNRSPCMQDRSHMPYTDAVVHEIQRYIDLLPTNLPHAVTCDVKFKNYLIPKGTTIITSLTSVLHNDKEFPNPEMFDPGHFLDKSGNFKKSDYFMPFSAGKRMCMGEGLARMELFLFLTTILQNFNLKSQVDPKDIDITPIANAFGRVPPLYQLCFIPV
Assay: NVS_ADME_hCYP2C18: NovaScreen (NVS) CYP450-related Enzyme Activity (ADME) Assay for human CYP2C18 (AID 2283103)
Experimental: NVS_ADME_hCYP2C18 is a biochemical, single-readout assay that uses extracted gene-proteins in a cell-free assay. Measurements were taken 0.5 hour after chemical dosing in a 96-well plate.NVS_ADME_hCYP2C18 is one of one assay component(s) measured or calculated from the NVS_ADME_hCYP2C18 assay. […] This assay endpoint, NVS_ADME_hCYP2C18, was analyzed in the positive analysis fitting direction relative to Acetonitrile as the negative control and baseline of activity. […]
Active and inactive are the calls of the source. The calls were made as follows: active = hit-call score of the fitted dose curve at least 0.9, where 1 is the maximum; inactive = score below 0.9.
Give your call using only these classes: True = active, False = inactive

Please review the following examples before continuing.
INSERT INTO measurements (compound, discrete_label) VALUES
  ('COP(=S)(OC)SCn1nnc2ccccc2c1=O', 'True'),
  ('CCCCOCN(C(=O)CCl)c1c(CC)cccc1CC', 'True'),
  ('CC(C)N1C(=O)N(c2ccccc2)CSC1=NC(C)(C)C', 'True');

Recorded test outcome, item CCCCC(O)(Cn1cncn1)c1ccc(Cl)cc1Cl (stereo unspecified) True

Recorded test outcome, item `CCOP(=O)(OCC)Oc1nc(Cl)c(Cl)cc1Cl` True

Recorded test outcome, item CCOc1cc(C(C)(C)C)ccc1C1COC(c2c(F)cccc2F)=N1 (stereo unspecified) False

* * *

read-out: sulfotransferase 2A1 (SULT2A1), SULT2A1 (gene 6822); test: LTEA_HepaRG_SULT2A1: Life Technologies and Expression Analysis (LTEA) Assay for sulfotransferase 2A1 (SULT2A1) using HepaRG (AID 2283531); conditions: mRNA level, 48 h; actives raise or lower the signal
Activity calls are given as the source filed them. The calls were made as follows: active = hit-call score of the fitted dose curve at least 0.9, where 1 is the maximum; inactive = score below 0.9.
RESULT TYPE: AC50

INSERT INTO assay_data (molecule, measured) VALUES
  ('CN=C=S', 'inactive'),
  ('COC(=O)NC(=S)Nc1ccccc1NC(=S)NC(=O)OC', 'inactive'),
  ('CC(C)N1C(=O)c2ccccc2NS1(=O)=O', 'inactive'),
  ('CCCCC(C#N)(Cn1cncn1)c1ccc(Cl)cc1 (centres undefined)', 'inactive');

Please give the measured AC50 for this molecule: `CCOP(=S)(OCC)Oc1nc(Cl)n(C(C)C)n1` inactive

Please give the measured AC50 for this molecule: `CC(C)N1C(=O)N(c2ccccc2)CSC1=NC(C)(C)C` 96.5 µM (active)

* * *

assay: CEETOX_H295R_11DCORT: CeeTox H295R High-throughput Steroidogenesis Assay for 11-Deoxycortisol (11DCORT) (AID 2283432); conditions: actives raise or lower the signal
Active and inactive are the calls of the source. The calls were made as follows: active = hit-call score of the fitted dose curve at least 0.9, where 1 is the maximum; inactive = score below 0.9.
Give your call using only these classes: active, inactive

INSERT INTO measurements (compound, discrete_label) VALUES
  ('COc1cc(Cl)c(OC)cc1Cl', 'inactive'),
  ('CC(C)Oc1cccc(NC(=O)c2ccccc2C(F)(F)F)c1', 'active'),
  ('CC1(C)CCC(=Cc2ccc(Cl)cc2)C1(O)Cn1cncn1 (configuration not stated)', 'inactive');

Recorded test outcome, item `N#Cc1c(Cl)cccc1Cl` inactive

Recorded test outcome, item `CCN(CC)c1nc(C)cc(OP(=S)(OC)OC)n1` inactive

Recorded test outcome, item CCNP(=S)(OC)O/C(C)=C/C(=O)OC(C)C (configuration not stated) active

Recorded test outcome, item CCCCC(C#N)(Cn1cncn1)c1ccc(Cl)cc1 (configuration not stated) active
